assay-target: recombinant S. aureus UPPS (SauUPPS) (Staphylococcus aureus)
Sequence (P60477 whole entry): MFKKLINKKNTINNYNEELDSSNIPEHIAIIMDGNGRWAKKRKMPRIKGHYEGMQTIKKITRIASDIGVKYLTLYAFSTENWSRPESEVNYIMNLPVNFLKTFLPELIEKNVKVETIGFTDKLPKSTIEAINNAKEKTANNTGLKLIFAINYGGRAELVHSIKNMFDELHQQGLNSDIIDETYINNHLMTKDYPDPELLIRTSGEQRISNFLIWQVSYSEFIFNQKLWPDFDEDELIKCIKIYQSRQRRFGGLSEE
method-summary: UPPS inhibition assay
run-parameters: SauUPPS
endpoint: pIC50
Here pIC50 is given on a logarithmic scale as minus log10 of the concentration in mol/L.

Inquiry: Param item = COc1cc(O)c2c(O)c3c(c4c2c1[C@]1(C4)C(C)=CCCC1(C)C)[C@H](O)[C@@]1(O)CC(=O)C(C(N)=O)=C(O)[C@@]1(O)C3=O ; retrieve measured pIC50.
Reply text: 5.39

====

assay-target: UniProtKB Q831K9
Sequence (Q831K9 whole entry): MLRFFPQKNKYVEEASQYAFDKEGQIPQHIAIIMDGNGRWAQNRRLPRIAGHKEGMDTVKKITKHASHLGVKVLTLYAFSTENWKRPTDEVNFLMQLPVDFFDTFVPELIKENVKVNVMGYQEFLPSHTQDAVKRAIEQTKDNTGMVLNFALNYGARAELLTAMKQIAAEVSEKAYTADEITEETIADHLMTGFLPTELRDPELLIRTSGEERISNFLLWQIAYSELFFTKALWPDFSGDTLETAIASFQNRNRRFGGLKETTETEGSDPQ
endpoint: Kd (µM)
Write it as a number; the unit µM goes unstated.

Inquiry: Param item = COc1cc(O)c2c(O)c3c(c4c2c1[C@]1(C4)C(C)=CCCC1(C)C)[C@H](O)[C@@]1(O)CC(=O)C(C(N)=O)=C(O)[C@@]1(O)C3=O [VirA, viridicatumtoxin A] ; retrieve measured Kd.
Reply text: 123
